Every entry's value here was drawn from patent US20200339544A1.

test: Permeability through monolayer of Caco-2 cells; assay type: in vitro ADME; details: human; Caco-2 monolayer; Papp B-A/Papp A-B
Reported efflux ratio at 2 h, 10 µM values follow for various compounds

SMILES REPRESENTATION	efflux ratio at 2 h, 10 µM
C=CC(=O)Nc1cc(Nc2nccc(C(=O)c3ccc(OC(C)C)cc3)n2)c(OC)cc1N(C)CCN(C)C	1.1
C=CC(=O)Nc1cc(Nc2nccc(C(=O)c3ccc(N4CCC4)cc3)n2)c(OC)cc1N(C)CCN(C)C	1.1
C=CC(=O)Nc1cc(Nc2cc(C(=O)c3ccc(OC)cc3)ccn2)c(OC)cc1N(C)CCN(C)C	1.7
C=CC(=O)Nc1cc(Nc2nccc(C(=O)c3ccc(N4CCC(N)CC4)cc3)n2)c(OC)cc1N(C)CCN(C)C	0.87
C=CC(=O)Nc1cc(Nc2nccc(C(=O)c3ccc(OC)cc3)n2)c(OC)cc1N(C)CCN(C)C	1.87
C=CC(=O)Nc1cc(Nc2nccc(C(=O)c3ccc(F)cc3)n2)c(OC)cc1N(C)CCN(C)C	0.58
C=CC(=O)Nc1cc(Nc2nccc(C(=O)c3ccc(OCCCC)cc3)n2)c(OC)cc1N(C)CCN(C)C	0.4

====

target: DM EGFR (DoubleMutantEGFR, L828R/T790M) (Homo sapiens, UniProt P00533, L858R/T790M); construct: purchased SignalChem; experiment: Inhibition of DM EGFR kinase activity (ADP-Glo); assay type: biochemical; conditions: selectivity index, kinase EGFR WT vs EGFR DM
In this scheme, each record receives a class according to its SI, IC50(WT)/IC50(DM); the ranges are bin 1: < 10; bin 2: ≥ 10 and < 20; bin 3: ≥ 20

MOLECULE	CLASSIFICATION
C=CC(=O)Nc1cc(Nc2nccc(C(=O)c3ccc(N4CCC[C@@H](O)C4)cc3)n2)c(OC)cc1N(C)CCN(C)C	bin 1
C=CC(=O)Nc1cc(Nc2nccc(C(=O)c3ccc(N(CC)CC)cc3)n2)c(OC)cc1N(C)CCN(C)C	bin 2
C=CC(=O)Nc1cc(Nc2nccc(C(=O)c3ccc(N4CCN(C)CC4)cc3OC)n2)c(OC)cc1N(C)CCN(C)C	bin 2
C=CC(=O)Nc1cc(Nc2nccc(C(=O)c3ccc(N4CC(OC)C4)cc3)n2)c(OC)cc1N(C)CCN(C)C	bin 2
C=CC(=O)Nc1cc(Nc2nccc(C(=O)c3ccc(Oc4ccccc4)cc3)n2)c(OC)cc1N(C)CCN(C)C	bin 1
C=CC(=O)Nc1cc(Nc2nccc(C(=O)c3ccccc3OC)n2)c(OC)cc1N(C)CCN(C)C	bin 2
C=CC(=O)Nc1cc(Nc2nccc(C(=O)c3ccc(F)cc3)n2)c(OC)cc1N(C)CCN(C)C	bin 3
C=CC(=O)Nc1cc(Nc2cc(C(=O)c3ccc(OC)cc3)ccn2)c(OC)cc1N(C)CCN(C)C	bin 2
C=CC(=O)Nc1cc(Nc2nccc(C(=O)c3ccc(N4CCC(N(C)C)CC4)cc3)n2)c(OC)cc1N(C)CCN(C)C [EGFR_3365_121a]	bin 3
C=CC(=O)Nc1cc(Nc2nccc(C(=O)c3ccc(OC(C)C)cc3OC)n2)c(OC)cc1N(C)CCN(C)C	bin 2
C=CC(=O)Nc1cc(Nc2nccc(C(=O)c3ccc(N4CC[C@H](O)C4)cc3)n2)c(OC)cc1N(C)CCN(C)C.O=CO	bin 2
C=CC(=O)Nc1cc(Nc2cc(C(=O)c3ccc(N4CCN(C)CC4)cc3)ccn2)c(OC)cc1N(C)CCN(C)C	bin 1
C=CC(=O)Nc1cc(Nc2nccc(C(=O)c3ccc(OC)cc3OC)n2)c(OC)cc1N(C)CCN(C)C	bin 1
C=CC(=O)Nc1cc(Nc2nccc(C(=O)c3ccc(NCCOC)cc3)n2)c(OC)cc1N(C)CCN(C)C	bin 3

====

tested on: H1975 (lung adenocarcinoma, DM, L828R/T790M); test: Antiproliferative activity on H1975 cells (Alamar Blue); assay type: cell-based; conditions: selectivity index, A549 vs H1975 cells
Reported SI IC50(A549)/IC50(DM) values follow for various compounds
VALUE TYPE: SI IC50(A549)/IC50(DM)

COMPOUND	OBSERVED MEASUREMENT
C=CC(=O)Nc1cc(Nc2cc(C(=O)c3ccc(OCCC)cc3)ccn2)c(OC)cc1N(C)CCN(C)C [EGFR_3365_50]	104
C=CC(=O)Nc1cc(Nc2cc(C(=O)c3ccc(N4CCOCC4)cc3)ccn2)c(OC)cc1N(C)CCN(C)C.O=C(O)C(F)(F)F [EGFR_3365_5]	132.56
C=CC(=O)Nc1cc(Nc2cc(C(=O)c3ccc(OCC)cc3)ccn2)c(OC)cc1N(C)CCN(C)C [EGFR_3365_52]	164
C=CC(=O)Nc1cc(Nc2nccc(C(=O)c3ccc(OCc4ccccc4)cc3)n2)c(OC)cc1N(C)CCN(C)C [EGFR_3365_16]	41.10
C=CC(=O)Nc1cc(Nc2nccc(C(=O)c3ccc(OCCCC)cc3)n2)c(OC)cc1N(C)CCN(C)C [EGFR_3365_66]	134
C=CC(=O)Nc1cc(Nc2nccc(C(=O)c3cc4ccccc4n3C)n2)c(OC)cc1N(C)CCN(C)C [EGFR_3365_94]	1037
C=CC(=O)Nc1cc(Nc2nccc(C(=O)c3ccc(OC)cc3OCCC)n2)c(OC)cc1N(C)CCN(C)C [EGFR_3365_102]	69
C=CC(=O)Nc1cc(Nc2nccc(C(=O)c3ccc(OCC)cc3OCC)n2)c(OC)cc1N(C)CCN(C)C [EGFR_3365_68]	235
C=CC(=O)Nc1cc(Nc2nccc(C(=O)c3ccc(N4CC(OC)C4)cc3)n2)c(OC)cc1N(C)CCN(C)C [EGFR_3365_61]	2884
C=CC(=O)Nc1cc(Nc2nccc(C(=O)c3ccc(N(C)C)cc3)n2)c(OC)cc1N(C)CCN(C)C [EGFR_3365_73]	1678
C=CC(=O)Nc1cc(Nc2nccc(C(=O)c3ccc(Br)cc3)n2)c(OC)cc1N(C)CCN(C)C [EGFR_3365_13]	145.63
C=CC(=O)Nc1cc(Nc2nccc(C(=O)c3ccc(N4CCC(N)CC4)cc3)n2)c(OC)cc1N(C)CCN(C)C [EGFR_3365_121]	1983
C=CC(=O)Nc1cc(Nc2nccc(C(=O)c3ccc(N4CC[C@@H](OC)C4)cc3)n2)c(OC)cc1N(C)CCN(C)C [EGFR_3365_115]	670
C=CC(=O)Nc1cc(Nc2nccc(C(=O)c3ccc(N4CCCCC4)cc3OC)n2)c(OC)cc1N(C)CCN(C)C [EGFR_3365_122]	2398

====

tested on: HepG2 cells; assay: General cytotoxicity on HepG2 cells; assay type: cell-based; settings: therapeutic index, CC50 HepG2 / IC50 H1975

MOLECULE	QUALIFIER OPERATOR	TI, CC50/IC50
C=CC(=O)Nc1cc(Nc2nccc(C(=O)c3c(OC)cc(OC)cc3OC)n2)c(OC)cc1N(C)CCN(C)C [EGFR_3365_124]	>	754
C=CC(=O)Nc1cc(Nc2nccc(C(=O)c3ccc(Oc4ccccc4)cc3)n2)c(OC)cc1N(C)CCN(C)C [EGFR_3365_17]	=	16
C=CC(=O)Nc1cc(Nc2cc(C(=O)c3ccccc3OC)ccn2)c(OC)cc1N(C)CCN(C)C [EGFR_3365_88]	=	429
C=CC(=O)Nc1cc(Nc2nccc(C(=O)c3ccc(N4CCC[C@H](O)C4)cc3)n2)c(OC)cc1N(C)CCN(C)C [EGFR_3365_108]	=	11026

====

test system: HepG2 cells; test: General cytotoxicity on HepG2 cells; assay type: cell-based; conditions: therapeutic index, CC50 HepG2 / IC50 H1975
Reported TI, CC50/IC50 values follow for various compounds

COMPOUND	ASSAYED SYSTEM	QUALIFIER OPERATOR	TI, CC50/IC50
C=CC(=O)Nc1cc(Nc2nccc(C(=O)c3ccc(OCC)cc3OCC)n2)c(OC)cc1N(C)CCN(C)C	HepG2 cells	=	825
C=CC(=O)Nc1cc(Nc2nccc(C(=O)c3cccc(F)c3)n2)c(OC)cc1N(C)CCN(C)C	HepG2 cells	=	43
C=CC(=O)Nc1cc(Nc2cc(C(=O)c3ccc(OCC(C)C)cc3)ccn2)c(OC)cc1N(C)CCN(C)C	HepG2 cells	=	33
C=CC(=O)Nc1cc(Nc2nccc(C(=O)c3ccc(N4CCC(N(C)C)CC4)cc3)n2)c(OC)cc1N(C)CCN(C)C [EGFR_3365_121a]	HepG2 cells	=	4649
C=CC(=O)Nc1cc(Nc2nccc(C(=O)c3ccc(N4CC[C@H](O)C4)cc3)n2)c(OC)cc1N(C)CCN(C)C.O=CO	HepG2 cells	>	3267
C=CC(=O)Nc1cc(Nc2nccc(C(=O)c3ccc(N4CCC4)cc3)n2)c(OC)cc1N(C)CCN(C)C	HepG2 cells	=	4241
C=CC(=O)Nc1cc(Nc2cc(C(=O)c3ccc(N4CC(OC)C4)cc3)ccn2)c(OC)cc1N(C)CCN(C)C (racemic)	HepG2 cells	=	457
